The reported numbers originate from patent US20190038721A1.

Target: T1, human GLP-1 receptor (human, UniProt P43220 24-463)
T1 construct: whole, on cells
Assay: competitive binding (SPA), displacement of 125I-GLP-1(7-36)NH2 from membranes with human GLP-1 receptor, high HSA (2.0% w/v)
Description: 1. For the receptor binding assay in the presence of low HSA (0.005% (w/v)) 50 μl of the assay buffer was added to each well of an assay plate. Assay continued with step 3. 2. For the receptor binding assay in the presence of high HSA (2% (w/v)) 50 μl of the 8% (w/v) albumin stock was added to each well of an assay plate. Assay continued with step 3. 3. […] 4. […] The assay plate was read in a Packard TopCount NXT instrument. Individual replicates were analysed using non-linear regression in GraphPad Prism.
pIC50: −log10 of the molar value. Starred links: 1 amine or outer side, 2 acyl side, 3 side chain; linkers in the order of their positions; H or OH if unused. Non-standard residues stand in square brackets, D forms with d. Groups on a side chain read outwards from the residue. No end group written: not given here. *: point of attachment. 4‑(aminomethyl)cyclohexanecarbonyl = 4-(aminomethyl)cyclohexanecarbonyl linker unit; Decanoyl(10-(4-HOOC-PhO)) = O=C(O)c1ccc(OCCCCCCCCCC(=O)*)cc1; C20 diacid = O=C(O)CCCCCCCCCCCCCCCCCCC(=O)*; γGlu = O=C(O)[C@H](CCC(=O)[*:2])N[*:1]; AEEA = NCCOCCOCC(=O)O; Aib = CC(C)(N)C(=O)O
Examples of binders with documented pIC50 follow.

binder: H[Aib]EGTFTSDVSSYLEEQAAREFIAWLVRGRGKGGSK (also: the two extension Lys residues acylated as in the compound) [Comparative Example 9A (Example 3 of WO 2015/000942)]
pIC50: 6.63
//
binder: HWEGTFTSDVSSYLEEQAAREFIAWLVRGRK([Lys-AEEA-AEEA-AEEA-AEEA-AEEA-AEEA-γGlu-4‑(aminomethyl)cyclohexanecarbonyl-C20 diacid)+(AEEA-AEEA-AEEA-AEEA-AEEA-AEEA-γGlu-4‑(aminomethyl)cyclohexanecarbonyl-C20 diacid]) (also called 10)
pIC50: 6.91
//
binder: HWEGTFTSDVSSYLEGQAAK([AEEA-AEEA-γGlu-Decanoyl(10-(4-HOOC-PhO))])EFIAWLVRGRK([AEEA-AEEA-γGlu-Decanoyl(10-(4-HOOC-PhO))])
pIC50: 6.11
//
binder: HWEGTFTSDVSSYLEEQAAREFIAWLVRGRGK([AEEA-AEEA-γGlu-4‑(aminomethyl)cyclohexanecarbonyl-C20 diacid])GGSK([AEEA-AEEA-γGlu-4‑(aminomethyl)cyclohexanecarbonyl-C20 diacid])
pIC50: 6.52
//
binder: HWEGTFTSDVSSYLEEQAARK([AEEA-AEEA-γGlu-Decanoyl(10-(4-HOOC-PhO))])FIEWLVRGK([AEEA-AEEA-γGlu-Decanoyl(10-(4-HOOC-PhO))])GEG
pIC50: 7.07
//
binder: H[Aib]EGTFTSDVSSYLEEQAARKFIEWLVRGKGEG (not fully specified (residues 21, 30); also: Lys21 and Lys30 acylated as, structure not given here) [Comparative Example 3A (Example 31 of WO 2012/140117)]
pIC50: 6.87
